# tgt: T1, human IL-11 (AAH12506.1, Pro22-Leu199) (human, UniProt P20809 22-199)
# T1 construct: The range Pro22-Leu199 counts on AAH12506.1; The Octet runs say only 'human IL-11'; also called hIL-11
# T1 chain: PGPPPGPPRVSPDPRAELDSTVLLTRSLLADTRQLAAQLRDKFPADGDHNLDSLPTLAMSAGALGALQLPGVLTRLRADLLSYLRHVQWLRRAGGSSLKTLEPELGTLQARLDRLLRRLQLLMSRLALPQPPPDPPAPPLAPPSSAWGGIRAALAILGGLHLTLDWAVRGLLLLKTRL
# protocolNotes: BLI (Octet), antibody captured, human IL-11 in solution
The following binders are shown together with reported kon values.
Reply with just the number (in M⁻¹ s⁻¹).

| binder | reportedMetric | reportedValue |
| --- | --- | --- |
| hz18A10-VHm20 + hz18A10-VLm19 (antibody, V domains shown, Constant regions not restated for this antibody) VH: EVQLVQSGAEVKKPGASVKVSCKASGYTFTHYNMDWVRQAPGQGLEWMGTIYPGQGDTSYNQKFKGRVTMTRDTSTSTVYMELSSLRSEDTAVYYCARGDLYALDYWGQGTLVTVSS VL: DIQMTQSPSSLSASVGDRVTITCKASQSVYRDVAWYQQKPGKAPKLLIYSASNRYTGVPSRFSGSGSGTDFTFTISSLQPEDIATYYCQHDYSSPYTFGQGTKLEIK | kon | 1.03e+06 |
| hz18A10-VHm1 + hz18A10-VLm15 (antibody, V domains shown, Constant regions not restated for this antibody) VH: EVQLVQSGAEVKKPGASVKVSCKASGYTFTTYNMDWVRQAPGQGLEWMGTIYPGNGDTSYNQKFKGRVTMTRDTSTSTVYMELSSLRSEDTAVYYCARGDLHFLDYWGQGTLVTVSS VL: DIQMTQSPSSLSASVGDRVTITCKASQSVSNDVAWYQQKPGKAPKLLIYRASSRYTGVPSRFSGSGSGTDFTFTISSLQPEDIATYYCQHDYSSPYTFGQGTKLEIK | kon | 453000 |
| hz18A10-VHm4 + hz18A10-VLm9 (antibody, V domains shown, Constant regions not restated for this antibody) VH: EVQLVQSGAEVKKPGASVKVSCKASGYTFTTYNIDWVRQAPGQGLEWMGTIYPGNGDTSYNQKFKGRVTMTRDTSTSTVYMELSSLRSEDTAVYYCARGDLYALDYWGQGTLVTVSS VL: DIQMTQSPSSLSASVGDRVTITCKASQSVYSDVAWYQQKPGKAPKLLIYSASNRYTGVPSRFSGSGSGTDFTFTISSLQPEDIATYYCQHDYSSPYTFGQGTKLEIK | kon | 1.02e+06 |

# lookup: kon of hz18A10-VHm4 + hz18A10-VLm18 (antibody, V domains shown, Constant regions not restated for this antibody) VH: EVQLVQSGAEVKKPGASVKVSCKASGYTFTTYNIDWVRQAPGQGLEWMGTIYPGNGDTSYNQKFKGRVTMTRDTSTSTVYMELSSLRSEDTAVYYCARGDLYALDYWGQGTLVTVSS VL: DIQMTQSPSSLSASVGDRVTITCKASQSVYRDVAWYQQKPGKAPKLLIYRASSRYTGVPSRFSGSGSGTDFTFTISSLQPEDIATYYCQHDYSSPYTFGQGTKLEIK
826000

Now try hz18A10-VH + hz18A10-VLm6 (antibody, V domains shown, Constant regions not restated for this antibody) VH: EVQLVQSGAEVKKPGASVKVSCKASGYTFTTYNMDWVRQAPGQGLEWMGTIYPGNGDTSYNQKFKGRVTMTRDTSTSTVYMELSSLRSEDTAVYYCARGDLYALDYWGQGTLVTVSS VL: DIQMTQSPSSLSASVGDRVTITCKASQSVFHDVAWYQQKPGKAPKLLIYSASNRYTGVPSRFSGSGSGTDFTFTISSLQPEDIATYYCQHDYSSPYTFGQGTKLEIK .
905000

Now try hz18A10-VH + hz18A10-VLm18 (antibody, V domains shown, Constant regions not restated for this antibody) VH: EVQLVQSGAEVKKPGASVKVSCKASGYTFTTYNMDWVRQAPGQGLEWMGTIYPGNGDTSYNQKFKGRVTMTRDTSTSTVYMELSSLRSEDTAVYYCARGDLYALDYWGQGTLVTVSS VL: DIQMTQSPSSLSASVGDRVTITCKASQSVYRDVAWYQQKPGKAPKLLIYRASSRYTGVPSRFSGSGSGTDFTFTISSLQPEDIATYYCQHDYSSPYTFGQGTKLEIK .
716000

Now try hz18A10-VHm1 + hz18A10-VLm14 (antibody, V domains shown, Constant regions not restated for this antibody) VH: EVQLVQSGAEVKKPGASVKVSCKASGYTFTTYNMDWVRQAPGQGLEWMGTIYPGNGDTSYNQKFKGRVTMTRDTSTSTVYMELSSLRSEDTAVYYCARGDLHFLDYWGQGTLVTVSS VL: DIQMTQSPSSLSASVGDRVTITCKASQSVSNDVAWYQQKPGKAPKLLIYRASRRYTGVPSRFSGSGSGTDFTFTISSLQPEDIATYYCQHDYSSPYTFGQGTKLEIK .
330000

Now try hz18A10-VHm1 + hz18A10-VL (antibody, V domains shown, Constant regions not restated for this antibody) VH: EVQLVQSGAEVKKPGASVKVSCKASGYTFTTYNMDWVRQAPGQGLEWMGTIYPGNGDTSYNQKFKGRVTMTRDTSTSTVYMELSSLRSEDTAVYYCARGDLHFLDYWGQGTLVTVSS VL: DIQMTQSPSSLSASVGDRVTITCKASQSVSNDVAWYQQKPGKAPKLLIYSASNRYTGVPSRFSGSGSGTDFTFTISSLQPEDIATYYCQHDYSSPYTFGQGTKLEIK .
640000

Now try hz18A10-VHm8 + hz18A10-VLm19 (antibody, V domains shown, Constant regions not restated for this antibody) VH: EVQLVQSGAEVKKPGASVKVSCKASGYTFTTYDMHWVRQAPGQGLEWMGTIYPGNGDTSYNQKFKGRVTMTRDTSTSTVYMELSSLRSEDTAVYYCARGDLYALDYWGQGTLVTVSS VL: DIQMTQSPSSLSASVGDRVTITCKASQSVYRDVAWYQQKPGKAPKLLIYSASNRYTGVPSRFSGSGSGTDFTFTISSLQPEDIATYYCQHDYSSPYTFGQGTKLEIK .
760000
